Data origin, for the record: ChEMBL document CHEMBL4622874

Recorded pIC50 for the following compounds
system: Orexin receptor type 2 (Homo sapiens, UniProt O43614)
Sequence (O43614 whole entry): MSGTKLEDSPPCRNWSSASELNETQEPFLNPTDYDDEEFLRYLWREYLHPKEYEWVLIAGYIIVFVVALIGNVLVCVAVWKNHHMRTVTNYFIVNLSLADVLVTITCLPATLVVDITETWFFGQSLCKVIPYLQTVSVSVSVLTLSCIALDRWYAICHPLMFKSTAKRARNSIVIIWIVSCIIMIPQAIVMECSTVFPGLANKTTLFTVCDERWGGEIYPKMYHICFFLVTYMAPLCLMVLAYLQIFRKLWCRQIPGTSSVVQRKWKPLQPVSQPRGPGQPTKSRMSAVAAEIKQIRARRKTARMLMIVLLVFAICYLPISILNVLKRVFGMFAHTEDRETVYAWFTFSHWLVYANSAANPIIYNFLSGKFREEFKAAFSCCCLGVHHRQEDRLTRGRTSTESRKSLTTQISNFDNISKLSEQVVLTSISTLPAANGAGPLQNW
protocol.details: Antagonist activity at human recombinant OX2R expressed in CHOK1 cells assessed as inhibition of orexin A-induced intracellular Ca2+ release preincubated for 30 mins followed by orexin-A stimulation by Fluo-4AM dye based fluorescence analysis
By convention, pIC50 is the negative base-10 log of a molar concentration.

Data request: Provide measured pIC50 value, entry: `Cc1ccc(-n2nccn2)c(C(=O)N2CCS[C@H]2Cn2ccc(-c3ccc(F)cn3)n2)c1`
Data returned: 5.64

Data request: Provide measured pIC50 value, entry: `Cc1ccc(-n2nccn2)c(C(=O)N2CCOC[C@H]2Cn2ccc(-c3ccc(F)cn3)n2)c1`
Data returned: 7.82

Data request: Provide measured pIC50 value, entry: `Cc1ccc(-n2nccn2)c(C(=O)N2CCC[C@H]2Cn2ccc(-c3ccc(F)cn3)n2)c1`
Data returned: 8.50

Data request: Provide measured pIC50 value, entry: `Cc1ccc(-c2ncccn2)c(C(=O)N2CCCO[C@H]2Cn2ccc(-c3ccc(F)cn3)n2)c1`
Data returned: 8.50

Data request: Provide measured pIC50 value, entry: `O=C(c1cc(F)ccc1-c1ncccn1)N1CCCO[C@H]1Cn1ccc(-c2ccc(F)cn2)n1`
Data returned: 8.34

Data request: Provide measured pIC50 value, entry: `O=C(c1ccccc1-n1nccn1)N1CCCO[C@H]1Cn1ccc(-c2ccc(F)cn2)n1`
Data returned: 8.58

Data request: Provide measured pIC50 value, entry: `Cc1ccc(-n2nccn2)c(C(=O)N2CCCC[C@@H]2Cn2ccc(-c3ccc(F)cn3)n2)c1`
Data returned: 7.28

Data request: Provide measured pIC50 value, entry: `Cc1ccc(-n2nccn2)c(C(=O)N2CCCO[C@H]2Cn2ncc(-c3ccc(F)cn3)n2)c1`
Data returned: 8.73

Data request: Provide measured pIC50 value, entry: `Cc1ccc(-n2nccn2)c(C(=O)N2COC[C@H]2Cn2ccc(-c3ccc(F)cn3)n2)c1`
Data returned: 6.88
